Cited source for all entries: PubChem BioAssay AID1996

details: buffer; pH 7.4; 200.0 µM
metric: solubility kinetic

Example compounds with recorded solubility kinetic:
                                   compound  reported_result
0  O=C(CNS(=O)(=O)c1c(F)cccc1F)NC1CCCc2ccccc21 (stereo not drawn)     > 57.1 µg/mL
1  COc1ccccc1CN1CCNC(=O)C1CC(=O)O (stereo not drawn)     > 41.7 µg/mL
2   Cc1csc2c(=O)sc(NC(=O)c3ccc(F)cc3Cl)nc12      < 0.4 µg/mL
3  CC(NC(=O)COc1ccccc1)C(=O)NCc1ccccc1Cl (stereo not drawn)       > 52 µg/mL
4  Nc1ccccc1C(=O)NC1CCCCNC1=O (stereo not drawn)     > 37.1 µg/mL

Data request: Dear colleague, I am looking for the recorded solubility kinetic of the following compound: `COc1cc(NC(=O)c2cccnc2SC)cc(OC)c1`
Data returned: > 45.7 µg/mL

Data request: Subsequent entry: `Cc1ccc([N+](=O)[O-])cc1N`
Data returned: 13.5 µg/mL

Data request: Subsequent entry: `CC(C)(CCO)Nc1ncnc2onc(-c3ccc(F)cc3)c12`
Data returned: > 47.5 µg/mL

* * *

conditions: buffer; pH 7.4; 200.0 µM
metric: solubility kinetic

                       molecule  reported_result
0  CC(=O)N(C1=NCCCS1)c1ccccc1Cl     > 40.3 µg/mL

Data request: Dear colleague, I am looking for the recorded solubility kinetic of the following molecule: `CC(C)(CNC(=O)c1cccs1)N1CCOCC1`
Data returned: > 40.3 µg/mL

Data request: Subsequent entry: `Oc1ccc(C(=S)N2CCCC2)cc1`
Data returned: > 31.1 µg/mL

Data request: Subsequent entry: `COc1ccc(NC(=O)c2ccco2)cn1`
Data returned: > 32.7 µg/mL

Data request: Subsequent entry: `Clc1ccc(-c2noc(/C=C/c3ccccc3)n2)cc1`
Data returned: < 0.3 µg/mL

Data request: Subsequent entry: `N#CC(C#N)=C1NC(N)=C(C#N)C(c2ccccc2)=C1C#N`
Data returned: > 42.6 µg/mL

Data request: Subsequent entry: `Cc1cc(C(=O)Nc2ccccc2C(=O)O)oc1C`
Data returned: 31.3 µg/mL

Data request: Subsequent entry: O=C(COC(=O)C1CCC(=O)N1)Nc1cccc([N+](=O)[O-])c1 (centres undefined)
Data returned: > 46.1 µg/mL

* * *

conditions: buffer; pH 7.4; 200.0 µM
metric: solubility kinetic

Example molecules with recorded solubility kinetic:
                                   molecule  reported_result
0         O=C(COc1ccc2cc(Br)ccc2c1)N1CCOCC1   > 0.0525 mg/mL
1  CC1CN(S(=O)(=O)c2cccc(C(=O)N3CCC(C(N)=O)CC3)c2)CC(C)O1 (configuration not stated)   > 0.0614 mg/mL
2    Nc1cc(N)nc(SCC(=O)NCc2ccc3c(c2)OCO3)n1     > 0.05 mg/mL
3   CCOC(=O)C(=O)C1=CN(Cc2ccccc2)C=C(C#N)C1   > 0.0444 mg/mL
4  COc1ccc(Nc2ccc([N+](=O)[O-])c3nonc23)c(OC)c1   < 0.0002 mg/mL

Data request: Dear colleague, I am looking for the recorded solubility kinetic of the following molecule: `CC(=O)N1CCCSC1=Nc1ccccc1`
Data returned: > 0.0351 mg/mL

Data request: Subsequent entry: COc1ccc(NC(=O)NC2(C)CCS(=O)(=O)C2)cc1 (configuration not stated)
Data returned: > 0.0448 mg/mL

Data request: Subsequent entry: Cc1cc(C)c(C)c(S(=O)(=O)NC(C)C(=O)O)c1C (configuration not stated)
Data returned: > 0.0428 mg/mL

Data request: Subsequent entry: `C=CC(=O)NC(C)(C)CCN1CCOCC1`
Data returned: > 0.0339 mg/mL

Data request: Subsequent entry: `COC(=O)/C=C1\SC(N)=NC1=O`
Data returned: > 0.0279 mg/mL

Data request: Subsequent entry: NC(CSCc1ccccc1Cl)C(=O)O (configuration not stated)
Data returned: > 0.0369 mg/mL

Data request: Subsequent entry: `OCCN1CCN(C(=S)Nc2ccc(SC(F)F)cc2)CC1`
Data returned: > 0.0521 mg/mL

Data request: Subsequent entry: `O=C(CNS(=O)(=O)c1ccccc1)NCC(=O)N1CCCCC1`
Data returned: > 0.0509 mg/mL

Data request: Subsequent entry: `CCCNc1ncnc2onc(C)c12`
Data returned: 0.0225 mg/mL

Data request: Subsequent entry: `COc1ccc([N+](=O)[O-])cc1NC(=O)COC(=O)C=C(C)C`
Data returned: 0.0011 mg/mL

Data request: Subsequent entry: `COc1ccccc1C(=O)NCCN1CCN(c2ccccc2)CC1.Cl`
Data returned: 0.0527 mg/mL

Data request: Subsequent entry: `CCOc1ccc(CNCCCSc2ncccn2)cc1`
Data returned: > 0.0455 mg/mL

* * *

settings: buffer; pH 7.4; 200.0 µM
metric: solubility kinetic

Example compounds with recorded solubility kinetic:
>>> print(df.to_string())
                                   compound              metric  reported_result
0    Cc1ccc2c(c1)sc(C)[n+]2CCCS(=O)(=O)[O-]  solubility kinetic     > 42.8 µg/mL
1  CC(NC(=O)CN1CCN(C(=O)c2cccs2)CC1)c1ccc(F)cc1F (configuration not stated)  solubility kinetic       > 59 µg/mL
2     Cc1ccc(C)n1-c1ccc(C(=O)NCc2cccnc2)cc1  solubility kinetic     > 45.8 µg/mL
3  CN1CCC(N(C)C(=O)c2ccc(Cl)c(S(=O)(=O)N3CCc4ccccc43)c2)CC1  solubility kinetic     > 67.2 µg/mL
4  O=C(CCc1ccccc1)NC1CCS(=O)(=O)C1 (configuration not stated)  solubility kinetic     > 40.1 µg/mL

Data request: Dear colleague, I am looking for the recorded solubility kinetic of the following compound: `COc1cc2c(cc1OC)CN(C(=O)CSc1ccccc1C)CC2`
Data returned: > 53.6 µg/mL

Data request: Subsequent entry: CC(CC(=O)Nc1ccccc1)n1ccnc1 (configuration not stated)
Data returned: > 34.4 µg/mL

* * *

Reported solubility kinetic by item:
details: buffer; pH 7.4; 200.0 µM
Response body: numeric value in µg/mL, unit text excluded.

Example molecules with recorded solubility kinetic:
                                  smiles              metric  reported_result
0    O=[N+]([O-])c1cccc(/C=C/c2ccncc2)c1  solubility kinetic             11.9
1   CC1CCN(CC(=O)Nc2nc(-c3ccccc3)cs2)CC1  solubility kinetic             12.9
2              COc1ccc(CN2CCSCC2)c(C)c1C  solubility kinetic              5.7
3  O=[N+]([O-])c1ccc(-c2cn3c(n2)CCC3)cc1  solubility kinetic             25.5

Could you now consider this next molecule?
Data request: Dear colleague, I am looking for the recorded solubility kinetic of the following molecule: `O=C(COC(=O)c1ccccc1)Nc1ccc2[nH]c(=O)[nH]c2c1`
Data returned: 7.2

* * *

Reported solubility kinetic by item:
details: buffer; pH 7.4; 200.0 µM
Response body: numeric value in mg/mL, unit text excluded.

In [3]: df
Out[3]:
                                     smiles      u  reported_result
0  O=c1c([N+](=O)[O-])c(N2CCCC2)c2ccccc2n1-c1ccccc1  mg/mL           0.0467
1    CCOC(=O)C1CCN(Cc2cc(Cl)c3ccccc3c2O)CC1  mg/mL           0.0062

Data request: Dear colleague, I am looking for the recorded solubility kinetic of the following compound: `CCCC(=O)c1c[nH]c(C(=O)NCc2cccnc2)c1`
Data returned: 0.0181

Data request: Subsequent entry: `COc1ccc(CNC(=O)CSC(=S)N2CCCC2)cc1`
Data returned: 0.0162

* * *

conditions: buffer; pH 7.4; 200.0 µM
metric: solubility kinetic

Example molecules with recorded solubility kinetic:
In [3]: df
Out[3]:
                                   molecule  reported_result
0  CC(C)CN(C(=O)C1CCCC1)C1CCS(=O)(=O)C1 (configuration not stated)     > 43.1 µg/mL
1     CC(=O)N(Cc1ccccc1)c1c(N)nc(N)[nH]c1=O       > 41 µg/mL
2                       CCCNc1c(N)c(=O)c1=O     > 23.1 µg/mL
3       CCCN(CC(=O)Nc1ccccc1OC)C(=O)C1CCCC1     > 47.8 µg/mL
4              Cl.O=C(CCN1CCOCC1)NCc1ccccc1     > 42.7 µg/mL

Data request: Dear colleague, I am looking for the recorded solubility kinetic of the following molecule: `O=C(c1ccncc1)N1CCN(S(=O)(=O)c2ccccc2F)CC1`
Data returned: > 52.4 µg/mL

Data request: Subsequent entry: `O=C(Nc1ccc(CN2CCOCC2)cc1)c1ccco1`
Data returned: > 42.9 µg/mL
